Readings of OD450 nm for the listed binders
Measured On: BSA (UniProt P02769)
Sequence (P02769 25-607 limits assumed): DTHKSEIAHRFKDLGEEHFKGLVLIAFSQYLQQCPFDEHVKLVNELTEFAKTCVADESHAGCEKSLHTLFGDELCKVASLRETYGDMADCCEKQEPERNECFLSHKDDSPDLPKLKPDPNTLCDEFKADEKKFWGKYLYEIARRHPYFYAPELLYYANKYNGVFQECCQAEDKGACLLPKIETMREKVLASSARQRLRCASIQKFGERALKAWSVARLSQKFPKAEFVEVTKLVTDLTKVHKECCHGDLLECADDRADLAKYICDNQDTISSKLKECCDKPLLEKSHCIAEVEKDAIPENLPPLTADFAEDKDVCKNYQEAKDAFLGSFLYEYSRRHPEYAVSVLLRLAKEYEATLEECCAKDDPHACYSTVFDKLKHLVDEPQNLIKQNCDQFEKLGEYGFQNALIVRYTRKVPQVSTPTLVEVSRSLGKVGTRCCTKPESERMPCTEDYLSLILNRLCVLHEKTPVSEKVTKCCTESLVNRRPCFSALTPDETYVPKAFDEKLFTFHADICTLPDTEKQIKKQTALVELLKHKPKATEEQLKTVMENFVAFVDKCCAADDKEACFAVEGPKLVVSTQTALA
Protocol Text: ELISA on coated BSA control, anti-myc detection; 2ng antibody added
Readout Label: OD450 nm (OD450)

Binder	Result Number
anti-CD79B single-domain antibody JYB10 (VHH, Alpaca VHH from a phage library; ELISA detected with an anti-myc antibody; a myc tag is not described; not shown: His-tag protein at the C-terminal end) VHH: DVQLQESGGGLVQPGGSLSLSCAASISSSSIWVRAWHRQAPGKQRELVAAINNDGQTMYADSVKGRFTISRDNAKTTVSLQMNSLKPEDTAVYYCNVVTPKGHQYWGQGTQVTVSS	0.0486
anti-CD79B single-domain antibody JYB11 (VHH, Alpaca VHH from a phage library; ELISA detected with an anti-myc antibody; a myc tag is not described; not shown: His-tag protein at the C-terminal end) VHH: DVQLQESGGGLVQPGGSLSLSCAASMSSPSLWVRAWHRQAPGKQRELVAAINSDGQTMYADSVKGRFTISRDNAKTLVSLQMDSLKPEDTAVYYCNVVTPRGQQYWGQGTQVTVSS	0.0485
